# assay: Quantitative highthroughput screen to assess conditional lethalithy of P12 Ichikawa cells grown in Human Plasma-Like Medium with dialyzed fetal bovine serum (HPLM+ds) (AID 1963879); further: nearly all actives have a fitted effect of over 35% in size; further: potency means the concentration at half of the fitted maximal effect
# study_conditions: ATP luminescence, 48 h; viability; series mostly up to 45.8 µM
# Method: Assay Provider: Jason Cantor Ph.D. Department of Biochemistry University of Wisconsin-Madison, Madison, WI, USA Chemical screening studies have identified drug sensitivities across hundreds of cancer cell lines but most putative therapeutics fail to translate. […] Sets of conditional anticancer compounds spanned phases of clinical development and included non-oncology drugs were assessed. […] 6; Detection; Luminescence, Viewlux PerkinElmer. […]
Results filed as inconclusive are left out. Activity calls are given as the source filed them. The call rests on the fitted dose curve; in most records, active means well fitted cell-killing curve with a large enough effect; inconclusive means small, poorly fitted or top-dose-only effect; inactive means flat fitted curve, though single readings scatter.
measure: Potency

Worked cases, answers included:
Prompt line: Find the recorded Potency belonging to "CC(C=CC1=C(C)CCCC1(C)C)=CC=CC(C)=CC(=O)O" and report it.
Response line: inactive

Prompt line: Find the recorded Potency belonging to "O=C1NC(=O)C(=Cc2ccc3nccc(-c4ccncc4)c3c2)S1" and report it.
Response line: 7.43 µM (active)

Prompt line: Find the recorded Potency belonging to "OCc1ccc(-c2nn(Cc3ccccc3)c3ccccc23)o1" and report it.
Response line: inactive

Prompt line: Find the recorded Potency belonging to NCCCC(N)(C(=O)O)C(F)F (configuration not stated) and report it.
Response line: inactive

Prompt line: Find the recorded Potency belonging to "CN[C@@H](C)[C@H]1[C@H](O)C[C@@]2(C)[C@@H]3CC[C@H]4C(C)(C)[C@@H](NC)CC[C@@]45C[C@@]35CC[C@]12C" and report it.
Response line: inactive

Prompt line: Find the recorded Potency belonging to "COc1cc([C@@H]2c3cc4c(cc3[C@@H](O[C@@H]3O[C@@H]5CO[C@@H](C)O[C@@H]5[C@H](O)[C@@H]3O)[C@H]3COC(=O)[C@H]23)OCO4)cc(OC)c1O" and report it.
Response line: 0.935 µM (active)

New cases:
Prompt line: Find the recorded Potency belonging to "C=C(C)[C@@H]1CC[C@]2(C)CC[C@]3(C)[C@H](CC[C@@H]4[C@@]5(C)CC[C@H](O)C(C)(C)[C@H]5CC[C@]43C)[C@@H]12" and report it.
Response line: inactive

Prompt line: Find the recorded Potency belonging to "Cc1nc(NC(=O)N2CCC[C@@H]2C(N)=O)sc1-c1csc(C(C)(C)C)n1" and report it.
Response line: 1.66 µM (active)

Prompt line: Find the recorded Potency belonging to "CN(C)CCN1C(=O)c2cccc3cc(N)cc(c23)C1=O" and report it.
Response line: 18.7 µM (active)

----------
# assay: Quantitative highthroughput screen to assess conditional lethalithy of NOMO1 cells grown in RPMI1640 with dialyzed fetal bovine serum (RPMI+ds) (AID 1963877); further: nearly all actives have a fitted effect of over 30% in size;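 on viability: 100% = DMSO control wells and 0% = empty wells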
# study_conditions: NOMO1 in RPMI+dialyzed FBS viability, ATP luminescence, 48 h; series mostly up to 45.8 µM
Records with an inconclusive call do not appear. Active and inactive are the calls of the source. The call rests on the fitted dose curve; in most records, active means well fitted cell-killing curve with a large enough effect; inconclusive means small, poorly fitted or top-dose-only effect; inactive means flat fitted curve, though single readings scatter.
Outcome (select one): Y = active, N = inactive

Prompt line: Record request — test call for COc1cc2c(Nc3ccc(Cl)c(Cl)c3F)ncnc2cc1OCC1C[C@@H]2CN(C)C[C@@H]2C1 (stereo not given in full)
Response line: Y

Prompt line: Record request — test call for "CN1CCN(C2=Nc3cc(Cl)ccc3Nc3ccccc32)CC1"
Response line: N

Prompt line: Record request — test call for C[C@@H](N)C1CCC(C(=O)Nc2ccncc2)CC1 (stereo not given in full)
Response line: N

Prompt line: Record request — test call for "COc1cc(OC)c(NC(=O)Nc2cc(C)on2)cc1Cl"
Response line: N

Prompt line: Record request — test call for "O=C(C=Cc1c(C(=O)O)[nH]c2cc(Cl)cc(Cl)c12)Nc1ccccc1"
Response line: N

Prompt line: Record request — test call for "COc1cc2ncnc(Nc3cc(Br)c(O)c(Br)c3)c2cc1OC"
Response line: N

Prompt line: Record request — test call for "C[C@@H]1[C@H](C)CC[C@]2(C(=O)O)CC[C@]3(C)C(=CC[C@@H]4[C@@]5(C)C[C@@H](O)[C@H](O)[C@@](C)(CO)[C@H]5CC[C@]43C)[C@@H]12"
Response line: N

Prompt line: Record request — test call for C[C@H](CCC(=O)O)[C@H]1CCC2C3C[C@H](O)[C@@H]4C[C@H](O)CC[C@]4(C)C3CC[C@@]21C (stereo not given in full)
Response line: N

Prompt line: Record request — test call for Cc1nccn1CC1CCc2c(c3ccccc3n2C)C1=O (stereo not given)
Response line: N

Prompt line: Record request — test call for CC[C@]1(O)C[C@@H]2CN(CCc3c([nH]c4ccccc34)[C@@](C(=O)OC)(c3cc4c(cc3OC)N(C=O)[C@@H]3C45CCN4CC=C[C@](CC)([C@H]45)[C@@H](OC(C)=O)[C@]3(O)C(=O)OC)C2)C1 (stereo not given in full)
Response line: N

----------
# assay: Viability qHTS for spleen associated tyrosine kinase inhibitor (SYKi) drug resistant MV4-11 cells (AID 1963824); further: nearly all actives have a fitted effect of over 35% in size
# study_conditions: SYKi-resistant MV4-11 viability, CellTiter-Glo, 72 h; series mostly up to 45 µM
Inconclusive results are not listed. Active and inactive are the calls of the source. Calls follow the shape of the dose curve; as a rule, active = well fitted cell-killing curve with a large enough effect; inconclusive = small, poorly fitted or top-dose-only effect, or effect the other way; inactive = no such curve, though single readings can be large or run the other way.
Outcome (select one): 1.0 = active, 0.0 = inactive

Prompt line: Record request — test call for "O=c1nc(-c2ccccn2)sc2ccccc12"
Response line: 1.0

Prompt line: Record request — test call for "CNc1nc(Nc2ccc(C(=O)N3CCOCC3)cc2OC)ncc1Cl"
Response line: 1.0

Prompt line: Record request — test call for CC1=C(C(=O)Nc2cc(Cl)ccc2Cl)C(c2ccco2)C2=C(CCCC2=O)N1 (stereo not drawn)
Response line: 1.0

Prompt line: Record request — test call for "CN(CCOc1ccc(-c2ccc3c(c2)OCO3)cc1C(C)(C)C)CC(=O)O"
Response line: 1.0

Prompt line: Record request — test call for C=CC(C)(C)c1[nH]c2cc3c(cc2c1CC1NC(=O)C2CCCN2C1=O)C=CC(C)(C)O3 (stereo not drawn)
Response line: 0.0

Prompt line: Record request — test call for "NS(=O)(=O)c1cc2c(cc1Cl)NC=NS2(=O)=O"
Response line: 0.0

Prompt line: Record request — test call for C=C1C(=O)OC2C1CCC(=C)C1CC(OC(C)=O)C(=C)C12 (stereo not drawn)
Response line: 1.0

Prompt line: Record request — test call for "CC(=O)c1cc2c(cc1O)OC(C)(C)C=C2"
Response line: 0.0

Prompt line: Record request — test call for "O=C(/C=C/c1ccccc1)OCC1=CC[C@@H]2C(C(=O)O)=CO[C@@H](O[C@@H]3O[C@H](CO)[C@@H](O)[C@H](O)[C@H]3O)[C@H]12"
Response line: 0.0

Prompt line: Record request — test call for C/C(=C\CCC(C)CCO)C(=O)OC1(C)CCC2C(C(=O)O)=COC(OC3OC(CO)C(O)C(O)C3O)C21 (stereo not drawn)
Response line: 0.0

Prompt line: Record request — test call for "CC#CC(=O)N1CC[C@@H](n2c(=O)n(-c3ccc(Oc4ccccc4)cc3)c3c(N)ncnc32)C1"
Response line: 1.0

Prompt line: Record request — test call for "O=C(Nc1ccc(Cl)cc1)c1ccccc1NCc1ccncc1"
Response line: 1.0

Prompt line: Record request — test call for "OC[C@H]1O[C@@H](OCCc2ccccc2)[C@H](O)[C@@H](O)[C@@H]1O"
Response line: 0.0

Prompt line: Record request — test call for "CC(=O)O[C@H]1C(=O)[C@@]2(C)[C@H]([C@H](OC(=O)c3ccccc3)[C@]3(O)C[C@H](OC(=O)[C@H](O)[C@@H](NC(=O)c4ccccc4)c4ccccc4)C(C)=C1C3(C)C)[C@]1(OC(C)=O)CO[C@@H]1C[C@@H]2O"
Response line: 1.0

Prompt line: Record request — test call for "Nc1nc2c(nc(Br)n2[C@@H]2O[C@@H]3COP(=O)(O)O[C@H]3[C@H]2O)c(=O)[nH]1"
Response line: 0.0

Prompt line: Record request — test call for "Cc1cc(C(=O)Nc2cc(Oc3ccc4nc(NC(=O)C5CC5)cn4n3)ccc2C)n(C)n1"
Response line: 1.0

Prompt line: Record request — test call for CCC(C)/C=C(C)/C=C/C1=CC2=C(Cl)C(=O)C(C)(O)C(=O)C2(O)C(OC)O1 (stereo not drawn)
Response line: 1.0

Prompt line: Record request — test call for "FC(F)(F)c1ccccc1-c1cc(C(F)(F)F)c2nc(C3=NOC4(CCCCC4)C3)[nH]c2c1"
Response line: 1.0

----------
Can you tell me activity (max response) for the items I'm about to list?
# assay: Cellular viability qHTS for adrenocortical cancer (ACC) cell line SW-13 (AID 1963989);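 further: cells grown in serum-free medium with ITS supplement; on the % scale 0 is the no-effect control and ±100 the full control effect; nearly all actives have a fitted effect of over 65% in size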
# study_conditions: SW-13 ACC cells viability, CellTiter-Glo, 48 h; active compounds read low
Records with an inconclusive call do not appear.
All answers are understood in %, so give the number only.

Prompt line: Find the recorded activity (max response) belonging to "CN[C@@H](C)C(=O)N[C@H]1CCCC[C@H]2CC[C@@H](C(=O)N[C@@H](c3ccccc3)c3cn(CCCCc4ccc(CCCCn5cc([C@@H](NC(=O)[C@@H]6CC[C@@H]7CCCC[C@H](NC(=O)[C@H](C)NC)C(=O)N76)c6ccccc6)nn5)cc4)nn3)N2C1=O" and report it.
Response line: -2.95

Prompt line: Find the recorded activity (max response) belonging to "O=C(O)CCCC[P+](c1ccccc1)(c1ccccc1)c1ccccc1" and report it.
Response line: 2

Prompt line: Find the recorded activity (max response) belonging to "CNCCc1ccccn1" and report it.
Response line: 13.5

Prompt line: Find the recorded activity (max response) belonging to "C[C@@H]1CC(=O)Nc2cccc(-c3cnn(C(C)(C)C)c3)c2N1" and report it.
Response line: 2.32

Prompt line: Find the recorded activity (max response) belonging to "CCCc1c2oc(C(=O)O)cc(=O)c2cc2c(=O)cc(C(=O)O)n(CC)c12" and report it.
Response line: -2.58

Prompt line: Find the recorded activity (max response) belonging to "Nc1ccc(S(=O)(=O)NCc2ccccc2)cc1" and report it.
Response line: -7

Prompt line: Find the recorded activity (max response) belonging to OC1CCC([C@H](O)C[C@H]2c3c(F)cccc3-c3cncn32)CC1 (stereo partly drawn) and report it.
Response line: -0.756

Prompt line: Find the recorded activity (max response) belonging to "CCC(=O)Nc1ccc(O)cc1" and report it.
Response line: 0.747
